System under test: Bifunctional protein GlmU (Mycobacterium tuberculosis (strain ATCC 25618 / H37Rv)) (UniProt P9WMN3)
Sequence (P9WMN3 whole entry, looked up): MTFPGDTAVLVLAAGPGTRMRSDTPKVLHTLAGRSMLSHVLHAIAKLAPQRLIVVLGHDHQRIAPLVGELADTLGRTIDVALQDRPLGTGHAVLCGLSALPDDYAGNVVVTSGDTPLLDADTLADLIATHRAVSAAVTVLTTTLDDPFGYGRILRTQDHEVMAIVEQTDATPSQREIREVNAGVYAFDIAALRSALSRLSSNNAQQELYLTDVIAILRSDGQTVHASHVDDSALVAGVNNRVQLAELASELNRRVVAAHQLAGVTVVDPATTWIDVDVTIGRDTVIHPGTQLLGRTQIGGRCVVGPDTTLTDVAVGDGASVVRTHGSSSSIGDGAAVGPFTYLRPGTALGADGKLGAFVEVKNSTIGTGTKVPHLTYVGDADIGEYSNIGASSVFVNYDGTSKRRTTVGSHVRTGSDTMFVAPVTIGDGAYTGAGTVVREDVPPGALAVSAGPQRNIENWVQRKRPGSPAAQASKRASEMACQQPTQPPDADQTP
Procedure details: inhibition of mycobacterial GlmU enzyme – biochemical, glucosamine-1-phosphate acetyltransferase (AID 1376);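 also: 0% = complete reaction with vehicle and 100% = reaction without substrate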
Recorded conditions: M. tuberculosis GlmU acetyltransferase enzyme assay; stronger effect = higher value;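 tested at 30 µM in the primary screen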
Among all 220,000 compounds or so, about 530 (0.24%) were called active. Many of the other results were omitted from the sample, so actives are more common in it than they were. Entries with a potency or affinity are not part of this list.
Measured inhibition by item

- Query smiles: "Cc1ccc(-c2c(C)n([O-])c3c([n+]2=O)CCC3)o1"
  Units label: "%"
  inhibition: 1.5
- Query smiles: "O=C(COC(=O)c1c[nH]c(=O)[nH]c1=O)NCc1ccccc1"
  Units label: "%"
  inhibition: 13.3
- Query smiles: "O=C(CSc1nnc(Cc2cccs2)n1-c1ccccc1)NCc1ccc2c(c1)OCO2"
  Units label: "%"
  inhibition: 5.29

----------
System under test: Bifunctional protein GlmU (Mycobacterium tuberculosis (strain ATCC 25618 / H37Rv)) (UniProt P9WMN3)
Procedure details: inhibition of mycobacterial GlmU enzyme – biochemical, glucosamine-1-phosphate acetyltransferase (AID 1376);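 also: 0% = complete reaction with vehicle and 100% = reaction without substrate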
Recorded conditions: M. tuberculosis GlmU acetyltransferase enzyme assay;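 tested at 30 µM in the primary screen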
Hit rate of the full screen: of about 220,000 compounds, about 530 (0.24%) were called active. Rule as the data show it: active = inhibition above about 13%; inconclusive = no clear call, values can overlap the other calls; inactive = below that. What follows is part of a selection rich in actives, with near analogues and random picks from the rest. Results with a measured potency or affinity are listed apart.
Labels: active, inactive

- Compound: "CCNc1nc(N2CCCCC2)nc(-n2nnc(C(=O)OCC)c2C)n1"
  Cat: "active"
- Compound: "CCC(=O)Nc1ccc(Oc2ccc3c(c2)C(=O)N(c2ccc(O)cc2)C3=O)cc1"
  Cat: "inactive"
- Compound: "COCCn1c(Cc2ccccc2)nnc1SCC(=O)Nc1ccccc1"
  Cat: "inactive"
- Compound: "O=C(c1ccc(O)cc1)c1ccc(C(=O)c2ccc(O)cc2)cc1"
  Cat: "inactive"
- Compound: "Cc1ccc([N+](=O)[O-])cc1N(CC(=O)NCC1CCCO1)S(C)(=O)=O (configuration not stated)"
  Cat: "inactive"
- Compound: "CN(C)c1nc(N/N=C\\c2ccc(Cl)c([N+](=O)[O-])c2)nc(Nc2ccc(F)cc2)n1"
  Cat: "inactive"
- Compound: "CCn1c(Cl)c(C=O)s/c1=N\\S(=O)(=O)c1ccccc1"
  Cat: "inactive"
- Compound: "O=C(O)c1cccc(-n2cccc2/C=C2\\SC(=O)N(Cc3ccccc3F)C2=O)c1"
  Cat: "active"
- Compound: "COc1cc(/C=C(\\C#N)C(=O)NCC2CCCO2)ccc1OCC(=O)O (configuration not stated)"
  Cat: "inactive"
- Compound: "CCOC(=O)c1nnn(-c2nc(OC)nc(N3CCCCC3)n2)c1-c1ccccc1"
  Cat: "inactive"
- Compound: "CCS(=O)(=O)N1CCN(CC(=O)NC2CCCCC2)CC1"
  Cat: "inactive"
- Compound: "COc1ccccc1N1CCN(CCN2C(=O)CC(=C3c4ccccc4-c4ccccc43)C2=O)CC1"
  Cat: "inactive"
- Compound: "O=Cc1s/c(=N\\S(=O)(=O)c2ccccc2)n(CCCCl)c1Cl"
  Cat: "active"
- Compound: "CCCCN(CC)CCNC(=O)CN(C)S(=O)(=O)c1ccc2c(c1)c(=O)n(C)c(=O)n2C"
  Cat: "active"
- Compound: "CCCn1c(SCc2ccon2)nc2ccccc2c1=O"
  Cat: "inactive"
- Compound: "Cc1ccccc1Oc1ccc(NC(=O)C2CC=CCC2C(=O)O)cc1 (configuration not stated)"
  Cat: "inactive"
- Compound: "Cc1ccc(O)c(CO)n1"
  Cat: "active"
- Compound: "O=C(O)c1ccc(-n2cccc2/C=C2/NC(=O)N(c3ccccc3)C2=O)cc1"
  Cat: "active"
- Compound: "Cc1ccc(O)c(CCc2ccccc2)n1"
  Cat: "inactive"
- Compound: "O=C(c1ccccc1)c1ccccc1C(=O)N1CCOCC1"
  Cat: "inactive"
- Compound: "COCCCNC(=O)/C(C#N)=C/c1ccc(F)cc1"
  Cat: "inactive"
- Compound: "COCCCN1C(=O)CS/C1=N\\S(=O)(=O)c1ccccc1"
  Cat: "inactive"
- Compound: "N#CC(C#N)=Cc1cccn1-c1ccc(C(=O)O)cc1"
  Cat: "active"
- Compound: "CC(C)CCNC(=O)CCCOc1cc(=O)n(C)c2ccccc12"
  Cat: "inactive"
- Compound: "COCCCNC(=O)/C(C#N)=C/c1ccc(OCC(=O)O)c(OC)c1"
  Cat: "active"
- Compound: "COC(=O)c1ccc(S(=O)(=O)NCc2ccccn2)n1C"
  Cat: "inactive"
- Compound: "CNS(=O)(=O)c1c(C)cc(C)c(N(C)S(=O)(=O)c2ccccc2)c1C"
  Cat: "inactive"
- Compound: "O=C1N/C(=C/c2cccn2-c2ccccc2)C(=O)N1Cc1ccc(F)cc1"
  Cat: "inactive"
- Compound: "CN1C(=O)S/C(=C/c2cccn2-c2cccc(C(=O)O)c2)C1=O"
  Cat: "inactive"
- Compound: "O=C(O)c1cccc(NC(CNS(=O)(=O)c2ccc(Cl)cc2)c2ccccc2)c1 (configuration not stated)"
  Cat: "inactive"
- Compound: "Cc1ccc(SC(C)c2nc(-c3cccnc3)no2)cc1 (configuration not stated)"
  Cat: "inactive"
- Compound: "COc1ccc(C2NC(=S)NC(C)=C2C(=O)Nc2ccccn2)cc1 (configuration not stated)"
  Cat: "inactive"
